assay: qHTS assay to identify small molecule agonists of the hypoxia (HIF-1) signaling pathway (AID 1224846)
measurement-context: HRE-bla ME-180 cells, beta-lactamase ratio, 17 h; series mostly up to 76.8 µM
Inconclusive results are not listed. Activity calls are given as the source filed them. Calls follow the shape of the dose curve; as a rule, active = well fitted activation curve with a large enough effect in the signal ratio in the repeat runs (not every such curve was filed as active); inconclusive = weak or mixed curves; inactive = flat fitted curve, though single readings scatter; the % refers to the signal ratio.
property: activation

>>> measured("CCCc1ccc(N)cc1")
"inactive"
>>> measured("CC(C)=CC(=O)O")
"inactive"
>>> measured("CC(CCO)CCCC(C)(C)O (stereo not drawn)")
"inactive"
>>> measured("C=C(C)[C@@H]1CCC2=CC(=O)C[C@@H](C)[C@]2(C)C1")
"inactive"
>>> measured("O=C1CC2(CCCC2)CC(=O)N1")
"inactive"
>>> measured("CCCCCOC(=O)Nc1nc(=O)n([C@@H]2O[C@H](C)[C@@H](O)[C@H]2O)cc1F")
"inactive"
>>> measured("C=CC(=O)N1CCOCC1")
"inactive"
>>> measured("C[N+](C)(C)CC[N+]1(C)Cc2c(Cl)c(Cl)c(Cl)c(Cl)c2C1")
"inactive"

Please give activation for each item listed below.
1. COc1cccc(OC)c1
2. C=CCn1c(=O)n([C@@H]2O[C@H](CO)[C@@H](O)[C@H]2O)c2nc(N)[nH]c(=O)c21
3. Nc1ncnc2c1ncn2Cc1c(F)cccc1Cl
4. Oc1ccc2c(c1)OC[C@@H](N1CCC(O)(c3ccc(F)cc3)CC1)[C@H]2O
5. CCC(C(=O)NC(N)=O)c1ccccc1 (stereo not drawn)

1: inactive; 2: inactive; 3: inactive; 4: inactive; 5: inactive

Origin of the recorded values: PubChem BioAssay (Tox21)
